Kindly supply the reported hERG current change (%, negative = inhibition) at 1uM values for the records listed here.
# assaySystem: human ether-à-go-go-related gene (hERG) potassium channel (human, UniProt Q12809)
# Sequence (Q12809 whole entry, looked up): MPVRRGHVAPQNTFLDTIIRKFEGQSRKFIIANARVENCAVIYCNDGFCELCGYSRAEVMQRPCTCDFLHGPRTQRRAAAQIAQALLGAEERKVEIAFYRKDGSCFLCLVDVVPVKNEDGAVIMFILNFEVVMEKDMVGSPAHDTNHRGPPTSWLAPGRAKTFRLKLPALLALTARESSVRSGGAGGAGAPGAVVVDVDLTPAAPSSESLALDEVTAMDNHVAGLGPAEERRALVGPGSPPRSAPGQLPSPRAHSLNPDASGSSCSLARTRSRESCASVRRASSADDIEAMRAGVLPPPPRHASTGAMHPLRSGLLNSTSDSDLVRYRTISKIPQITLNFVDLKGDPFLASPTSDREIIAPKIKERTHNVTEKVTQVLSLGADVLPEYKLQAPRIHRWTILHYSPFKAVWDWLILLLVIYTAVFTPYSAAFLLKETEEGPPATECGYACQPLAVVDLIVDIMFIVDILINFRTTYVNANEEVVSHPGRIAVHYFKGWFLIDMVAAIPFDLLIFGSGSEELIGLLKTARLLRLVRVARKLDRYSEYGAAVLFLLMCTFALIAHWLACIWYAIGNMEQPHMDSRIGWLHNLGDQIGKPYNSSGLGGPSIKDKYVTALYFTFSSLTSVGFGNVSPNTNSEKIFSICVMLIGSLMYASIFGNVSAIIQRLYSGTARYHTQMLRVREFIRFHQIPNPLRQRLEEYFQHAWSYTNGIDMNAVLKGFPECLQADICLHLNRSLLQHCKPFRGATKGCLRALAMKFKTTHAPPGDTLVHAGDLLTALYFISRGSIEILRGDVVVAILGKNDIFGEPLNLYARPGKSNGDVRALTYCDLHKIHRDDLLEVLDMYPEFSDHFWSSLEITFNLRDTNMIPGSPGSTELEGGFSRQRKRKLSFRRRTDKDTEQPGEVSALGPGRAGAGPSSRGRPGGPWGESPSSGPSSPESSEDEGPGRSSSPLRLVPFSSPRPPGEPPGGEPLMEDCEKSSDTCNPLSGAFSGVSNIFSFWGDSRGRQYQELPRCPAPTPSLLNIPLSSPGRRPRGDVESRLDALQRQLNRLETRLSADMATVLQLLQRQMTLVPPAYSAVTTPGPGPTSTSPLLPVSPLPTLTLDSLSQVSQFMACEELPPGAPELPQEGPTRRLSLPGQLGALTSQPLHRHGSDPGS
# runDescription: primary screen, population patch clamp on CHO cells stably expressing hERG; higher = less effect of the substance
The whole screen tested about 310,000 compounds, of which about 2,200 (0.71%) showed an effect of 50% or more. The effect is printed as a negative number. The sample as a whole holds a higher share of strong results than the screen did.
Expressed in %, but write only the number.

**Query** Write down measured hERG current change (%, negative = inhibition) at 1uM (human ether-à-go-go-related gene (hERG) potassium channel (human, UniProt Q12809)) for this molecule. C/C=C/c1ccc(OCCNCc2ccccc2)c(OC)c1.O=C(O)C(=O)O
**Result** 4.38

**Query** Quote human ether-à-go-go-related gene (hERG) potassium channel (human, UniProt Q12809) hERG current change (%, negative = inhibition) at 1uM for entry Cc1ccc(C(=O)NC2CCCN(c3ccc(C(F)(F)F)cn3)C2)cn1 (stereo not shown) .
**Result** 2.48

**Query** Report hERG current change (%, negative = inhibition) at 1uM under test system human ether-à-go-go-related gene (hERG) potassium channel (human, UniProt Q12809) for COC(=O)C1=COC(OC2OC(CO)C(O)C(O)C2O)C2C1C=CC2(O)CO (stereo not shown) .
**Result** 5.93

**Query** Using human ether-à-go-go-related gene (hERG) potassium channel (human, UniProt Q12809) as the test system, report measured hERG current change (%, negative = inhibition) at 1uM of COc1cc(NC(=O)[C@H]2CSCN2C(=O)[C@@H]2CCC(=O)N2)cc(OC)c1OC .
**Result** 10.8

**Query** Report the value of hERG current change (%, negative = inhibition) at 1uM obtained on human ether-à-go-go-related gene (hERG) potassium channel (human, UniProt Q12809) for O=C(NCCNc1ccccc1[N+](=O)[O-])c1cc(F)c(F)cc1Cl .
**Result** -2.68

**Query** Print human ether-à-go-go-related gene (hERG) potassium channel (human, UniProt Q12809) hERG current change (%, negative = inhibition) at 1uM for C/C=C/c1ccc(OCCCNC)c(OC)c1.O=C(O)C(=O)O .
**Result** -10.9

**Query** Would you please give the reported hERG current change (%, negative = inhibition) at 1uM of O=C(NC1CCCN(c2ccc(C(F)(F)F)cn2)C1)c1ccncc1 (stereo not shown) with human ether-à-go-go-related gene (hERG) potassium channel (human, UniProt Q12809)?
**Result** -51.8

**Query** Send back human ether-à-go-go-related gene (hERG) potassium channel (human, UniProt Q12809) hERG current change (%, negative = inhibition) at 1uM of C/C=C/c1ccc(OCCCCNCc2ccco2)c(OC)c1.O=C(O)C(=O)O only.
**Result** -62.6

**Query** Name the recorded hERG current change (%, negative = inhibition) at 1uM of CCCCCOc1ccc(C(C)(O)C(CN2CCOCC2)c2ccccc2)cc1 (stereo not shown) , assay system human ether-à-go-go-related gene (hERG) potassium channel (human, UniProt Q12809).
**Result** -3.26

**Query** Look up human ether-à-go-go-related gene (hERG) potassium channel (human, UniProt Q12809) data: hERG current change (%, negative = inhibition) at 1uM of CCOc1ccc(N(CC(=O)N/N=C/c2cccnc2)S(C)(=O)=O)cc1 , then report it.
**Result** 12.9
